Sourced from the supplement of paper PMC6757056

B1: library; a variant is named by its letters at N, in order (parent)
chain: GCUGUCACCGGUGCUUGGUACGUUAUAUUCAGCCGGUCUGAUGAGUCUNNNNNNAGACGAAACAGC

Variants of: B1
measurement.description: normalized RNA/DNA level without ligand (relative to sTRSVctl = 100) (log10 (% of sTRSVctl)); HEK293T overexpressing SLC46A1; higher = less ribozyme self-cleavage, higher mRNA level
condition.parameters: without (6R,S)-folinic acid; ligand present: no
# normalized RNA/DNA level without ligand (log10) values compiled below
reported.endpoint: normalized RNA/DNA level without ligand (log10)

# variant.notation, reported
rows = [
    ("CGGAAC", 1.98),
    ("UGGGUC", 2.11),
    ("ACUAGG", 1.91),
    ("CUAACA", 2.03),
    ("GCACUA", 2.02),
    ("CGGAUC", 2.08),
    ("GGAUGA", 2.02),
    ("GAGAAC", 1.96),
    ("GUCAAG", 1.97),
    ("AAGAGU", 1.92),
    ("CUGUCC", 2.06),
    ("CCACUA", 2.02),
    ("UGGUUG", 1.83),
    ("CGGUCA", 2),
    ("AUGUGA", 1.94),
]
